Reference for the values: patent US8501754B2

Below, each entry is listed alongside its reported pIC50.
Target: Recombinant human HSP90a (Homo sapiens, UniProt P07900)
Test: radioligand filter binding test ([3H]17AAG competition) for HSP90 inhibition
Details: competition with [3H]17AAG 0.08 μM, HSP90 1.5 μg/assay, 22° C., 30 min
pIC50: −log10 of the molar value.

[[record]]
molecule = "Nc1nc(C(=O)N2Cc3ccccc3C2)c2cc(-c3cc4ccccc4o3)ccc2n1"
readout_name = "pIC50"
measured_value = "5.00 to 6.00"

[[record]]
molecule = "CN(Cc1ccc(F)cc1)C(=O)c1nc(N)nc2ccccc12"
readout_name = "pIC50"
measured_value = "< 5.00"

[[record]]
molecule = "C#CCCNC(=O)c1nc(N)nc2ccccc12"
readout_name = "pIC50"
measured_value = "< 5.00"

[[record]]
molecule = "Nc1nc(C(=O)N2Cc3ccccc3C2)c2cc(-c3ccncc3)ccc2n1 [Compound A923]"
readout_name = "pIC50"
measured_value = "5.00 to 6.00"

[[record]]
molecule = "Nc1nc(C(=O)N2Cc3ccccc3C2)c2cc(-c3ccccc3S(=O)(=O)N3CCNCC3)ccc2n1"
readout_name = "pIC50"
measured_value = "6.00 to 8.00"


Report pIC50 for `CCN(CC)C(=O)c1nc(N)nc2ccc(-c3ccccc3)cc12` tested on Recombinant human HSP90a (Homo sapiens, UniProt P07900).
5.00 to 6.00

Please provide the recorded pIC50 for `Nc1nc(C(=O)N2Cc3ccccc3C2)c2cc(Oc3ccccc3)ccc2n1` , tested on Recombinant human HSP90a (Homo sapiens, UniProt P07900).
6.00 to 8.00

Please provide the recorded pIC50 for `Nc1nc(C(=O)N2Cc3ccccc3C2)c2cc(Br)ccc2n1` , tested on Recombinant human HSP90a (Homo sapiens, UniProt P07900).
5.00 to 6.00

Given the entry `Nc1nc(C(=O)Nc2ccccc2-c2ccccc2)c2ccccc2n1` , what pIC50 was observed with Recombinant human HSP90a (Homo sapiens, UniProt P07900)?
5.00 to 6.00

Record lookup: for Recombinant human HSP90a (Homo sapiens, UniProt P07900), what pIC50 belongs to `CNCc1ccccc1-c1ccc2nc(N)nc(C(=O)N3Cc4ccccc4C3)c2c1` ?
6.00 to 8.00

What pIC50 appears in the records for this molecule with Recombinant human HSP90a (Homo sapiens, UniProt P07900)? `Nc1nc(C(=O)N2Cc3ccccc3C2)c2cc(N3CCN(C(=O)OCc4ccccc4)CC3)ccc2n1`
6.00 to 8.00

Param readout = pIC50; param system = Recombinant human HSP90a (Homo sapiens, UniProt P07900); param query = `CC(C)c1ccc2nc(N)nc(C(=O)N3Cc4ccccc4C3)c2c1` ; response: value
5.00 to 6.00

Give Recombinant human HSP90a (Homo sapiens, UniProt P07900) pIC50 for `NC(=O)c1ccccc1-c1ccc2nc(N)nc(C(=O)N3Cc4ccccc4C3)c2c1`
6.00 to 8.00

Kindly state the measured pIC50 obtained for `CN(C)CCCNc1ccc2nc(N)nc(C(=O)N3Cc4ccccc4C3)c2c1` with Recombinant human HSP90a (Homo sapiens, UniProt P07900).
< 5.00

// fetch Recombinant human HSP90a (Homo sapiens, UniProt P07900) pIC50 for `CN(C)C(=O)c1nc(N)nc2ccccc12`
< 5.00

Request body: readout pIC50, system Recombinant human HSP90a (Homo sapiens, UniProt P07900), query `Nc1nc(C(=O)N2Cc3ccccc3C2)c2cc(-c3ccccc3C(=O)N3CCNCC3)ccc2n1` . Return the value.
6.00 to 8.00

State its pIC50 on Recombinant human HSP90a (Homo sapiens, UniProt P07900): `N#Cc1ccccc1-c1ccc2nc(N)nc(C(=O)N3Cc4ccccc4C3)c2c1`
6.00 to 8.00
